Substrate: vinyl acetate
Details: pH 7; 25 °C
Reported Metric: kcat/Km (M⁻¹ s⁻¹)
Please give a number only; it is taken to be in M⁻¹ s⁻¹.

Which value of kcat/Km has been reported for unnamed (protein) MVLKQRANYLGFLIVFFTAFLVEAVPIKRQSNSTVDSLPPLIPSRTSAPSSSPSTTDPEAPAMSRNGPLPSDVETKYGMALNATSYPDSVVQAMSIDGGIRAATSQEINELTYYTTLSANSYCRTVIPGATWDCIHCDATEDLKIIKTWSTLIYDTNAMVARGDSEKTIYIVFRGSSSIRNWIADLTFVPVSYPPVSGTKVHKGFLDSYGEVQNELVATVLDQFKQYPSYKVAVTGHSLGGATALLCALDLYQREEGLSSSNLFLYTQGQPRVGDPAFANYVVSTGIPYRRTVNERDIVPHLPPAAFGFLHAGEEYWITDNSPETVQVCTSDLETSDCSNSIVPFTSVLDHLSYFGINTGLCT in the records? 7920
